- test_target: mitochondrial pyruvate carrier (MPC) (Homo sapiens, UniProt O95563+Q9Y5U8)
- Sequence (Q9Y5U8 whole entry): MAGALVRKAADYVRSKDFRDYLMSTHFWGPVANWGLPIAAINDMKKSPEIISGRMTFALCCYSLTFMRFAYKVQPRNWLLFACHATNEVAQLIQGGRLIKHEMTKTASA
- Sequence (O95563 whole entry): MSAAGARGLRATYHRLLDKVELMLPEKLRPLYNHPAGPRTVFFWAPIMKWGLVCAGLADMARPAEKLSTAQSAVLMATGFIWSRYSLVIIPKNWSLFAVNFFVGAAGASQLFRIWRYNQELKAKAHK
- experimental_protocol: Seahorse Xfe24 pyruvate-dependent OCR in HeLa cells
- Type: cell-based
- experimental_parameters: pyruvate-dependent OCR in presence of fCCP
- Protocol: The inhibition of mitochondrial pyruvate carrier (MPC) by compounds of the invention have been tested as follows and their inhibitory activity was expressed as IC50s values. Cells are plated in the customized Seahorse plates. For HeLa cells, seeding is at 4×10^4 cells/well in […] DMEM, 10% FBS, 1% pen/strep/glutamine. 3 wells are left blank (medium alone) for internal calibration. The assay cartridge is hydrated overnight at 37° C. in 1 ml/well XF Calibrant Solution. […]
outcome_measure: pIC50
The value called pIC50 is obtained by taking minus log10 of the concentration in mol/L.

Per the record, "CCCc1cc(=O)[nH]c2nnc(SCc3c(C)cccc3C)n12" has pIC50 of 6.77

For this compound ( "CC(C)Cc1cc(=O)[nH]c2nnc(SCc3c(F)cccc3Cl)n12" ), measured pIC50 is 6.66

Recorded result, "O=c1cc(CCOCc2ccccc2)n2c(SCc3cc(F)ccc3F)nnc2[nH]1" , pIC50: 5.78

The reported pIC50 of the compound "CCCc1cc(=O)[nH]c2nnc(SCc3cc(F)ccc3C)n12" was 6.80

pIC50 reading for "O=c1cc(CCOCc2ccccc2)n2c(SCc3c(F)cccc3Cl)n[nH]c2n1" : 6.54

pIC50 recorded for this compound, "CCCc1cc(=O)[nH]c2nnc(Sc3ccccc3)n12" , is 6.74

Memo: "O=c1cc(CCOCc2ccccc2Cl)n2c(SCc3cc(F)ccc3F)nnc2[nH]1" , reported pIC50: 5.98

Entry under test: "O=c1cc(Cc2ccccc2)n2c(SCc3c(F)cccc3Cl)nnc2[nH]1" . Its pIC50 was 7.19

Briefly, pIC50 measured for "CCCc1cc(=O)[nH]c2nnc(SCc3cc(F)ccc3OC)n12" : 6.73
